For each record, write down the corresponding pIC50.
- Tested on: mouse macrophage-like J774E cells
- test-summary: Antiproliferative activity, MTT assay
- Assay type: cell-based
- condition-details: Mus musculus, Macrophage, 72 h, J774E macrophages, 72 h exposure
A value of pIC50 is the negative decimal logarithm of a concentration given in moles per litre.

Item CCn1cnc(NC(P(=O)(O)O)P(=O)(O)O)n1 was tested on mouse macrophage-like J774E cells; the reported pIC50 is 4.51

Item O=P(O)(O)C(NC1CCCCCC1)P(=O)(O)O [incadronic acid, reference compound] was tested on mouse macrophage-like J774E cells; the reported pIC50 is 4.32

Item O=P(O)(O)C(Nc1nc[nH]n1)P(=O)(O)O was tested on mouse macrophage-like J774E cells; the reported pIC50 is 4.60

Item O=P(O)(O)C(O)(Cn1ccnc1)P(=O)(O)O [zoledronic acid, reference compound] was tested on mouse macrophage-like J774E cells; the reported pIC50 is 4.61
